System: SK-OV-3 ovarian
Test: NCI-60 one-dose screen, 48 h
Conditions: 10 µM unless noted
The panel holds about 83,000 compounds, 20% with a hit somewhere; the sample as a whole holds those more often. Calls of active or inactive are those of the source. How the source made its calls: active means growth percent below 10; inactive means the rest.
Please answer using one outcome listed in true for active, false for inactive

Prompt line: Per the records of this test, what outcome belongs to `COc1ccc(/C=N/N=C(/c2ccccc2)c2ccc3nc(-c4ccc(Cl)cc4)[nH]c3c2)cc1` ?
Response line: false

Prompt line: Test call for this molecule, please: `Cc1ccc2c(n1)C(=O)C(Cl)=C(Nc1cc(C(F)(F)F)cc(C(F)(F)F)c1)C2=O`
Response line: false

Prompt line: Lab log entry: `CN1CCN(Cc2ccc(NC(=O)c3cncc(C#Cc4cnc5ccc(OCCCS(C)(=O)=O)nn45)c3)cc2C(F)(F)F)CC1` — outcome as called in the assay?
Response line: true

Prompt line: Per the records of this test, what outcome belongs to `CC(C)(C)OC(=O)NCc1ccc(CNc2c([N+](=O)[O-])cnc3ccccc23)cc1` ?
Response line: false

Prompt line: Which outcome was assigned to `COc1cc(C(=O)c2cc(C(C)=O)c3c(C)cccn23)cc(OC)c1OC` in this test?
Response line: false

Prompt line: Lab log entry: `CN1CCN(Cc2ccc(NC(=O)c3cncc(C#Cc4cnc5ccc(NCCO)nn45)c3)cc2C(F)(F)F)CC1` — outcome as called in the assay?
Response line: true

Prompt line: Record lookup: outcome of this test for `CCOC(=O)c1cccc(NC2=C(Cl)C(=O)C(C)=C(C)C2=O)c1` ?
Response line: false

Prompt line: Given `CCCCc1nc2c(N)nc3ccccc3c2n1Cc1cccc(CN)c1` , state the outcome it received in this test.
Response line: false

Prompt line: So what was the verdict on `Cc1csc(/N=C(N)/N=C(\N)c2cccc(C#N)c2)n1` in this test?
Response line: false

* * *

Assignment: determine reported growth for the given compounds.
System: EKVX NSCLC
Assay: NCI-60 one-dose screen, 48 h (100 = growth as untreated, 0 = no growth, -100 = all killed)
Conditions: 10 µM unless noted
Compounds without any hit were thinned out: in the full panel of roughly 83,000, 20% have a hit.
Please give a number only; it is taken to be in %.

Lab book: growth of `CN1CCN(c2ccc(C(=O)/C=C/c3cc(F)cc(C(F)(F)F)c3)cc2)CC1` noted as 88.9

Noted for `N#Cc1nc(-c2ccccc2)oc1N1CCC(C2(C(F)(F)F)N=N2)CC1` : its growth reads 92.1

The reported growth of the compound `CCc1cc(O)ccc1Nc1cc(-c2ccc(-n3cccn3)cc2)[nH]n1` was 63

Lookup result for `Clc1cccc(/C=N/Nc2nc(N/N=C/c3cccc(Cl)c3)nc(N3CCOCC3)n2)c1` ; measured growth: 72.2

`CCC(=C(c1ccc(OCCN2CCCCCC2)cc1)c1ccc(OCCN2CCCCCC2)cc1)c1ccc(Cl)cc1` has a reported growth of 54.5

* * *

Test system: KM12 colon
Experiment: NCI-60 one-dose screen, 48 h
Conditions: 10 µM unless noted
This is part of a sample that, as a whole, favours compounds with a hit. Of some 83,000 tested, about 20% had one in any assay. Activity calls are given as the source filed them. Rule for the calls: active = growth percent below 10; inactive = the rest.
Entry note: the call must match one of active, inactive

Prompt line: Called result for `CCOC(=O)c1ccc(NC2=C(Cl)C(=O)c3nc(C)ccc3C2=O)cc1`
Response line: inactive

Prompt line: Test call, this compound: `COc1ccc(CC(C)=C(c2ccc(OCCN3CCCC3)cc2)c2ccc(OCCN3CCCC3)cc2)cc1`
Response line: active

Prompt line: What did this assay record as the result for `O=C(COc1ccc(/C=C2\C(=O)Nc3cc(Cl)ccc32)cc1)Nc1ccc(Cl)cc1` ?
Response line: inactive

Prompt line: Please share the test call associated with `O=S(=O)(Oc1ccc(-c2cn3ccoc3n2)cc1)C1CCCCC1` .
Response line: inactive

Prompt line: Hello, I am checking results. What call was entered for `CC1(C)CC[C@]2(C(=O)NCCCCCCN(CCCN)CCCN)CC[C@]3(C)C(=CC[C@@H]4[C@@]5(C)CC[C@H](O)C(C)(C)[C@@H]5CC[C@]43C)[C@@H]2C1` ?
Response line: inactive

Prompt line: How did this test come out for `COc1ccc(N2CCN(C3=C(Cl)C(=O)c4ncccc4C3=O)CC2)cc1` ?
Response line: inactive

Prompt line: Check the results log: what was the call for `CC(=O)Nc1cc(N2CCOCC2)c2nc(NC(=O)c3[nH]c(C)c(Cl)c3Cl)sc2c1` ?
Response line: inactive

Prompt line: I would be grateful if you could indicate the recorded call for `Fc1ccc2nc(-c3cnn4cccnc34)sc2c1` .
Response line: inactive

Prompt line: How did this test come out for `CCNCCOc1ccc(/C(=C(/CC)c2ccc(Cl)cc2)c2ccc(OCCCN(C)C)cc2)cc1` ?
Response line: active

Prompt line: Hello, I am checking results. What call was entered for `CN1CCN(c2ccc(Nc3nc(NCCCNS(=O)(=O)c4ccc(F)cc4)c4sccc4n3)cc2)CC1` ?
Response line: inactive

Prompt line: Record request — test call for `Nc1ccc(Nc2ncnc3sc4c(c23)CCN(Cc2ccccc2)C4)cc1`
Response line: inactive

Prompt line: Outcome logged for `CC(C)NC(=O)c1cc(-c2ccc(NC(=O)Nc3ccc(F)c(C(F)(F)F)c3)cc2)nc2cccnc12` in this assay:
Response line: inactive

Prompt line: Would you mind telling me which call this test gave `CCN1CCN(c2ccc(NC(=O)Nc3ccc4c(ccn4-c4ccnc(C(=O)NC)c4)c3)cc2C(F)(F)F)CC1` ?
Response line: inactive

Prompt line: // return assay outcome for `COc1ccc2[nH]cc(-c3nn4cc(-c5ccncc5)nc4s3)c2c1`
Response line: inactive

Prompt line: Recorded call for CCCC/C(=C\c1ccc(O)c(O)c1)C(=O)NC(Cc1ccccc1)C(=O)C(=O)NCCc1ccc(OC)cc1 (centres undefined) ?
Response line: inactive

Prompt line: Per the assay record, what outcome was assigned to `O=C(CCCCCCN1CC(=O)N2[C@@H](c3ccc(Cl)s3)c3[nH]c4ccccc4c3C[C@H]2C1=O)NO` ?
Response line: inactive

Prompt line: Please share the test call associated with `COc1ccc(NC2=C(Br)C(=O)C(C)=C(C)C2=O)cc1OC` .
Response line: inactive

Prompt line: Short answer needed: outcome of this test for `CCOC(=O)c1ccccc1NC1=C(Cl)C(=O)c2nc(C)ccc2C1=O` ?
Response line: inactive

Prompt line: Please indicate how the test categorized `CN1CCN(Cc2ccc(/C=N/Nc3ccnc4cc(Cl)ccc34)cc2)CC1` .
Response line: inactive
